assay.context: in isopropanol, 293.15 K
readout: solubility (mole fraction)

[[record]]
smiles_record = "O=[N+]([O-])c1cc(F)c(F)cc1[N+](=O)[O-]"
obs_value = "3.1e-05"


----------
assay.context: in isopropanol, 318.15 K
readout: solubility (mole fraction)

[[record]]
smiles_record = "O=[N+]([O-])c1cc(F)c(F)cc1[N+](=O)[O-]"
obs_value = 0.000164


----------
assay.context: in ethanol, 313.15 K
readout: solubility (mole fraction)

[[record]]
smiles_record = "O=[N+]([O-])c1cc(F)c(F)cc1[N+](=O)[O-]"
obs_value = 0.000339


----------
assay.context: in methanol, 298.15 K
readout: solubility (mole fraction)

[[record]]
smiles_record = "O=[N+]([O-])c1cc(F)c(F)cc1[N+](=O)[O-]"
readout = "solubility (mole fraction)"
obs_value = 0.000263


Recorded values, source BigSolDB 2.1.
